Entries and their cytotoxicity at 10 µM values follow.
assay: Toxicity liver stage against HepG2, at 10uM; type: cell-based; design: test concentration 10 uM, cell line HepG2-A16-CD81EGFP; conditions: human, HepG2-A16-CD81EGFP cells; read-out: INHIBITION
Answer format: numeric, % implied, no suffix.

| Molecule | cytotoxicity at 10 µM, % |
| --- | --- |
| COCc1nccc(C2CCCN(Cc3cccc(F)c3)C2)n1 (stereo not given) | 0.769 |
| Nc1cc2c(nn1)CCN(C(=O)Cc1ccc3c(c1)CCCC3)C2 | 0.696 |
| O=S(=O)(CCCN1CCCCC1Cn1cncn1)c1ccccc1 (stereo not given) | -7.42 |

cytotoxicity at 10 µM recorded for this molecule, O=C([C@H]1C[C@H]2OCC[C@H]2N(Cc2ccncc2)C1)N1CCCCO1 , is -9.01

cytotoxicity at 10 µM recorded for this molecule, COc1ccc(C2=CN=C(C(F)(F)F)CC2N)cc1 (stereo not given) , is 16.6

----------
assay: Toxicity liver stage against HepG2, at 10uM; type: cell-based; parameters: test concentration 10 uM, cell line HepG2-A16-CD81EGFP; conditions: human, HepG2-A16-CD81EGFP cells; read-out: INHIBITION
Recorded Metric: cytotoxicity at 10 µM (%)
Answer format: numeric, % implied, no suffix.

cytotoxicity at 10 µM recorded for this molecule, Cc1nc(C2CCCN2Cc2cc(Cl)c3c(c2)OCCCO3)no1 (configuration not stated) , is 10.3

cytotoxicity at 10 µM recorded for this molecule, CCNC(=O)NC(=O)CSC(C)c1ccccc1F (configuration not stated) , is 15.6

cytotoxicity at 10 µM recorded for this molecule, CCN(C)c1ncnc2c1CCN(c1ccc(C)nn1)CC2 , is -94.7

cytotoxicity at 10 µM recorded for this molecule, CS(=O)(=O)NCC1CCCN(C(=O)c2ccc3c(c2)CCC3)C1 (configuration not stated) , is -5.52

cytotoxicity at 10 µM recorded for this molecule, CNC(=O)C(C)CN(C)C(=O)Nc1cc(-n2cccc2)ccc1F (configuration not stated) , is -5.28

cytotoxicity at 10 µM recorded for this molecule, Cc1noc(C)c1-c1cncc(C2CCCN2Cc2ncc[nH]2)n1 (configuration not stated) , is -8.89

cytotoxicity at 10 µM recorded for this molecule, CCCc1nn(C2CCCN(C(C)C)C2=O)c(=O)o1 (configuration not stated) , is -6.11

----------
assay: Toxicity liver stage against HepG2, at 10uM; format: cell-based; parameters: test concentration 10 uM, cell line HepG2-A16-CD81EGFP; conditions: human, HepG2-A16-CD81EGFP cells; read-out: INHIBITION
Entries and their cytotoxicity at 10 µM values follow.
Answer format: numeric, % implied, no suffix.

| Compound | Unit | cytotoxicity at 10 µM |
| --- | --- | --- |
| Cc1cccc(CN2C[C@@H](C)[C@@]3(CCN(CC(=O)N(C)C)C3=O)C2)c1 | % | -0.979 |

cytotoxicity at 10 µM recorded for this compound, Cc1ccc(CN2C[C@H](OCCN(C)C)[C@H]3COC[C@H]32)o1 , is 1.6

cytotoxicity at 10 µM recorded for this compound, CC[C@H]1CN2CC[C@H]1C[C@@H]2CNCc1ccc(OC)cc1 , is -1.19

cytotoxicity at 10 µM recorded for this compound, CN1CCC(CCc2ccnc(NC(=O)c3ccccn3)c2)CC1 , is -2.12

cytotoxicity at 10 µM recorded for this compound, CN1CCN(c2ccncc2S(=O)(=O)N2CCCCC2)CC1 , is -6.84

cytotoxicity at 10 µM recorded for this compound, COc1ccc(OC2CCN(C(=O)CCc3n[nH]c(C)n3)CC2)cc1 , is 4.66

cytotoxicity at 10 µM recorded for this compound, CC1c2ncc(Cn3cncn3)n2CCN1C(=O)[C@H]1CCCO1 (stereo partly specified) , is -4.12

----------
assay: Toxicity liver stage against HepG2, at 10uM; format: cell-based; design: test concentration 10 uM, cell line HepG2-A16-CD81EGFP; settings: human, HepG2-A16-CD81EGFP cells; read-out: INHIBITION
Entries and their cytotoxicity at 10 µM values follow.
Answer format: numeric, % implied, no suffix.

Recorded cytotoxicity at 10 µM, per entry:
| Molecule | cytotoxicity at 10 µM (%) |
| --- | --- |
| COc1c(C2CCCN2C(=O)c2cccn2C)c(C)nn1C (centres undefined) | -1.88 |
| CC(C)(C)n1ncc2c1CCCC2NCc1ccc2c(c1)OCCO2 (centres undefined) | 1.7 |
| COCC(=O)N1CC[C@H]2O[C@@H](C)C[C@H]2C1 | -66.1 |
| COc1ccc(-n2ccc(C(=O)N3CCN(C)CC3C)n2)cc1 (centres undefined) | -11.2 |
| Cc1nc2cc(=O)[nH]n2c(C)c1CC(=O)Nc1cn[nH]c1 | 6.13 |

cytotoxicity at 10 µM recorded for this molecule, COC(=O)c1cc(C(=O)N2CCC(OC)CC2)n(-c2ccccc2)n1 , is -15.1

cytotoxicity at 10 µM recorded for this molecule, CCC1CCCN(CC(=O)Nc2oc(C)c3c(C)n[nH]c(=O)c23)C1 (centres undefined) , is -3.66

cytotoxicity at 10 µM recorded for this molecule, NCC1CCN(c2nc(C3CCCC3)nc3c2CCNCC3)C1 (centres undefined) , is 16.1

cytotoxicity at 10 µM recorded for this molecule, CC(C)S(=O)(=O)N1CCC(c2cc3n(n2)[C@@H](C(F)(F)F)C[C@@H](C)N3)C1 (some centres undefined) , is -1.96

cytotoxicity at 10 µM recorded for this molecule, Cc1ccc(-c2nc(CN3CCOC(Cn4cncn4)C3)cs2)o1 (centres undefined) , is 4.5

cytotoxicity at 10 µM recorded for this molecule, COCC(=O)N1C[C@@H]2CCCO[C@@H]2[C@H](N(C)Cc2ccco2)C1 , is -0.704

----------
test: Toxicity liver stage against HepG2, at 10uM; assay type: cell-based; design: test concentration 10 uM, cell line HepG2-A16-CD81EGFP; conditions: human, HepG2-A16-CD81EGFP cells; read-out: INHIBITION
Recorded Metric: cytotoxicity at 10 µM (%)
Answer format: numeric, % implied, no suffix.

cytotoxicity at 10 µM recorded for this molecule, Cc1nn(C)c(C)c1CC(=O)NCC1(C(N)=O)CCOCC1 , is 0.63

----------
Entries and their cytotoxicity at 10 µM values follow.
test: Toxicity liver stage against HepG2, at 10uM; format: cell-based; design: test concentration 10 uM, cell line HepG2-A16-CD81EGFP; conditions: human, HepG2-A16-CD81EGFP cells; read-out: INHIBITION
# include the unit after the value

Recorded cytotoxicity at 10 µM, per entry:
| Compound | cytotoxicity at 10 µM |
| --- | --- |
| COc1ccccc1Oc1ncccc1CNC(=O)[C@@H](C)NC(C)=O | -2.61% |
| O=C(Nc1nccs1)NC1CCN(CC2CCCC2)CC1 | -8.07% |
| COCCCNC(=O)Cc1cc(-c2ccccc2)on1 | -7.39% |
| CC(C)CCn1ccc(NC2CCSC2)n1 (stereo unspecified) | 6.93% |
| Cc1cncnc1C1CCN(CCO)CC1 | -7.26% |
| Cc1cc(N2CCCN(c3ccnc(C)c3)CC2)ccn1 | -0.943% |
| Cc1csc(C(Cc2ccsc2)NC(=O)c2cc(=O)n(C)c(=O)n2C)n1 (stereo unspecified) | -12.3% |
| CC(C)(NC(=O)c1cnc(C(C)(C)C)s1)C(N)=O | -4.04% |
| COc1c(F)cc(-c2cccc3c2OC(CN)C3)cc1F (stereo unspecified) | -53.7% |
| CC(=O)N1CCC(c2ncc(C(=O)Nc3ccc(F)cc3)c(C)n2)CC1 | 7.29% |

Read the next record carefully.
cytotoxicity at 10 µM recorded for this compound, O=C(c1ccc[nH]1)N1CCc2ncc(Cn3cccn3)n2CC1 , is -0.469%

----------
Entries and their cytotoxicity at 10 µM values follow.
test: Toxicity liver stage against HepG2, at 10uM; type: cell-based; set-up: test concentration 10 uM, cell line HepG2-A16-CD81EGFP; settings: human, HepG2-A16-CD81EGFP cells; read-out: INHIBITION
# include the unit after the value

Recorded cytotoxicity at 10 µM, per entry:
| Compound | cytotoxicity at 10 µM |
| --- | --- |
| O=C(CCc1ccc(F)c(F)c1)N1CCCCC1Cn1cccn1 (stereo not drawn) | -8.01% |
| Cc1nc(COCc2nc3c(o2)CN(C(=O)c2ccoc2)C3)cs1 | -1.95% |
| CC(C)(C(=O)NCC1CC1)c1ccccc1F | -5.47% |

cytotoxicity at 10 µM recorded for this compound, CC(C)N1CCC(C(=O)N[C@H](C(=O)O)c2cccc(F)c2F)CC1 , is 2.59%

cytotoxicity at 10 µM recorded for this compound, CC(C)(C)c1cn2nc(N3CCCC3Cn3cccn3)sc2n1 (stereo not drawn) , is -23.8%

cytotoxicity at 10 µM recorded for this compound, CN(Cc1cnn(C)c1)C(=O)NCCc1ccc2c(c1)OCCO2 , is -15.4%

cytotoxicity at 10 µM recorded for this compound, NC(=O)c1cc(C2CCCN(CCc3ccc4c(c3)CCO4)C2)n[nH]1 (stereo not drawn) , is -1.92%

cytotoxicity at 10 µM recorded for this compound, CC(C)NC(=O)N1CCC2(CC1)[C@@H]1CN(C(=O)N(C)C)C[C@@H]1C(=O)N2C , is 4.32%
